- Species: Rattus norvegicus
- assay_details: Open TG-GATES - Regimen: Single
- Assay type: toxicity, organism-based, Sprague-Dawley
- Set-up: regimen Single, gender Male, age 6 weeks
- test_parameters: in vivo, po, 100 mg/kg, 24 h, tissue Plasma, route gavage, dose level Low
Documented TBIL across a set of molecules
Please respond with the number in mg/dL and leave the unit unwritten.

// worked examples, TBIL included
CN(C)C(=N)N=C(N)N
0.034
CCC1(c2ccccc2)C(=O)NC(=O)NC1=O
0.1

Field TBIL (entry O=NN1CCOCC1 ) reads 0.084

Field TBIL (entry CN(C)CCC=C1c2ccccc2COc2ccccc21 [DOXEPIN] ) reads 0.04

---

- Organism: Rattus norvegicus
- assay_details: Open TG-GATES - Regimen: Single
- Assay type: toxicity, organism-based, Sprague-Dawley
- Parameters: regimen Single, gender Male, age 6 weeks
- test_parameters: in vivo, po, 0 mg/kg, 9 h, tissue Blood, route gavage, dose level Control
property_name: MCH (pg)
Please respond with the number in pg and leave the unit unwritten.

CCC1(c2ccccc2)C(=O)NC(=O)NC1=O [PHENOBARBITAL]
21.5
ClC(Cl)(Cl)Cl [CARBON TETRACHLORIDE]
22.2

Field MCH (entry CC1=C(CC(=O)O)c2cc(F)ccc2/C1=C\c1ccc([S+](C)[O-])cc1 (stereo not drawn) ) reads 21.1

---

- Species on record: Rattus norvegicus
- assay_details: Open TG-GATES - Regimen: Single
- Assay type: toxicity, organism-based, Sprague-Dawley
- Design: regimen Single, gender Male, age 6 weeks
- test_parameters: in vivo, po, 0 mg/kg, 9 h, tissue Plasma, route gavage, dose level Control
property_name: ALT

CCc1oc2ccccc2c1C(=O)c1cc(Br)c(O)c(Br)c1 [BENZBROMARONE]
27 IU/L
CCC1(c2ccccc2)C(=O)NC(=O)NC1=O [PHENOBARBITAL]
31.4 IU/L
CC[C@H]1[C@@H]2C[C@H]3[C@@H]4N(C)c5ccccc5[C@]45C[C@@H]([C@@H]2[C@H]5O)N3[C@@H]1O [AJMALINE]
32.6 IU/L
ClC(Cl)(Cl)Cl [CARBON TETRACHLORIDE]
30 IU/L

Field ALT (entry CN(C)CCC=C1c2ccccc2COc2ccccc21 [DOXEPIN] ) reads 36.6 IU/L

Field ALT (entry CC(C)N(CCC(C(N)=O)(c1ccccc1)c1ccccn1)C(C)C (stereo not given) [DISOPYRAMIDE] ) reads 41.6 IU/L

Field ALT (entry O=NN(CCCl)C(=O)NC1CCCCC1 [LOMUSTINE] ) reads 28 IU/L

Field ALT (entry CN(C)C(=N)N=C(N)N [METFORMIN] ) reads 41.6 IU/L

Field ALT (entry CC1=C(CC(=O)O)c2cc(F)ccc2/C1=C\c1ccc([S+](C)[O-])cc1 (stereo not given) ) reads 36.8 IU/L

Field ALT (entry OCCOCCN1CCN(C(c2ccccc2)c2ccc(Cl)cc2)CC1 (stereo not given) [HYDROXYZINE] ) reads 38 IU/L

---

- Species on record: Rattus norvegicus
- assay_details: Open TG-GATES - Regimen: Daily Repeat
- Format: toxicity, organism-based, Sprague-Dawley
- Design: regimen Daily Repeat, gender Male, age 6 weeks
- test_parameters: in vivo, po, 0 mg/kg, […], tissue Blood, route gavage, dose level Control, time 14 day
property_name: Plat (x10_4/uL)
Please respond with the number in x10_4/uL and leave the unit unwritten.

// worked examples, Plat included
CN(C)CCC=C1c2ccccc2COc2ccccc21 [DOXEPIN]
116.1
CN(C)C(=N)N=C(N)N [METFORMIN]
123
CCC1(c2ccccc2)C(=O)NC(=O)NC1=O [PHENOBARBITAL]
113.2
CCc1oc2ccccc2c1C(=O)c1cc(Br)c(O)c(Br)c1 [BENZBROMARONE]
110.7

Field Plat (entry CCCCc1oc2ccccc2c1C(=O)c1cc(I)c(OCCN(CC)CC)c(I)c1 [AMIODARONE] ) reads 128.6

Field Plat (entry CC(C)N(CCC(C(N)=O)(c1ccccc1)c1ccccn1)C(C)C (stereo unspecified) [DISOPYRAMIDE] ) reads 113.2
